assay: reversed-phase LC retention time (C18, 15 min MeOH gradient); higher = more hydrophobic / later elution; conditions: ionization mode: ESI+; ion species: [M+H]+
Item-by-item account of reversed-phase LC retention time

# molecule, reversed-phase LC retention time / min
records = [
    ("COP(=S)(OC)Oc1c(Cl)cc(C)cc1Cl [Toclofos-methyl]", 15.8),
    ("CCCN(CCOc1c(Cl)cc(Cl)cc1Cl)C(=O)NC=O", 15.7),
    ("CC1CN(C2CCCCCCCCCCC2)CC(C)O1 (stereo not given) [Dodemorph]", 13.3),
    ("O=c1[nH]sc2ccccc12 [1,2-Benzisothiazolinone]", 8.77),
    ("O=c1oc2cc(O)ccc2c2oc3cc(O)ccc3c12 [Coumestrol]", 12.5),
]

Source of measurements: the supplement of paper PMC12613149
